Each recorded value in this set is attributed to BindingDB's records for doi:10.1021/jm501787c.

assay: Binding affinity to human FRalpha expressed in Chinese hamster RT16 cells assessed as cell growth inhibition after 96 hrs by CellTiter-Blue assay
Quantity Measured: IC50

Nc1nc2[nH]cc(CCc3ccc(C(=O)N[C@@H](CCC(=O)O)C(=O)O)s3)c2c(=O)[nH]1: 550 nM
Nc1nc2[nH]cc(Cc3ccc(C(=O)N[C@@H](CCC(=O)O)C(=O)O)s3)c2c(=O)[nH]1: > 1000 nM

Req: Give its IC50 value. Item: Nc1nc2[nH]cc(CCCCCCc3ccc(C(=O)N[C@@H](CCC(=O)O)C(=O)O)s3)c2c(=O)[nH]1
Resp: > 1000 nM

###

assay: Binding affinity to human RFC expressed in Chinese hamster PC43-10 cells assessed as cell growth inhibition after 96 hrs by CellTiter-Blue assay
Quantity Measured: IC50 (nM)

Nc1nc2[nH]cc(CCCCCc3ccc(C(=O)N[C@@H](CCC(=O)O)C(=O)O)s3)c2c(=O)[nH]1: 243
Nc1nc2[nH]cc(CCc3ccc(C(=O)N[C@@H](CCC(=O)O)C(=O)O)s3)c2c(=O)[nH]1: 60

[P] Nc1nc2[nH]cc(CCCCc3ccc(C(=O)N[C@@H](CCC(=O)O)C(=O)O)s3)c2c(=O)[nH]1
[Q] Nc1nc2[nH]cc(CCCc3ccc(C(=O)N[C@@H](CCC(=O)O)C(=O)O)s3)c2c(=O)[nH]1
Req: Return label of the item with the larger IC50. Candidates: P , Q . Your answer should be the label of the entry you select.
Resp: Q

###

assay: Binding affinity to human FRalpha expressed in Chinese hamster RT16 cells assessed as cell growth inhibition after 96 hrs by CellTiter-Blue assay
pIC50: −log10 of the molar value.
Quantity Measured: pIC50

Some compounds with known pIC50 results, for comparison:
Nc1nc2[nH]cc(CCCCCc3ccc(C(=O)N[C@@H](CCC(=O)O)C(=O)O)s3)c2c(=O)[nH]1: 7.34
Nc1nc2[nH]cc(CCCCc3ccc(C(=O)N[C@@H](CCC(=O)O)C(=O)O)s3)c2c(=O)[nH]1: 7.31

[P] Nc1nc2[nH]c(CCCCc3ccc(C(=O)N[C@@H](CCC(=O)O)C(=O)O)s3)cc2c(=O)[nH]1
[Q] Nc1nc2[nH]cc(CCCc3ccc(C(=O)N[C@@H](CCC(=O)O)C(=O)O)s3)c2c(=O)[nH]1
Req: Could you determine which record has the numerically smaller pIC50? Candidates: P and Q Select an item and report its label.
Resp: Q

###

experiment: Binding affinity to human RFC expressed in Chinese hamster PC43-10 cells assessed as cell growth inhibition after 96 hrs by CellTiter-Blue assay
pIC50: −log10 of the molar value.
Quantity Measured: pIC50

As a guide, the following entries are already answered.
Nc1nc2[nH]c(CCCCc3ccc(C(=O)N[C@@H](CCC(=O)O)C(=O)O)s3)cc2c(=O)[nH]1: < 6.00
Nc1nc2[nH]cc(CCCCCCc3ccc(C(=O)N[C@@H](CCC(=O)O)C(=O)O)s3)c2c(=O)[nH]1: < 6.00

Please turn your attention to the following entry.
Req: Which pIC50 reading was recorded for the compound Nc1nc2[nH]cc(Cc3ccc(C(=O)N[C@@H](CCC(=O)O)C(=O)O)s3)c2c(=O)[nH]1 ?
Resp: < 6.00
